# System: HOP-62 NSCLC
# TEST DETAILS: NCI tumour cell line growth inhibition, 48 h
Recorded measurements of TGI, one per entry
Give just the number in µM; leave the unit off.

A selection of reference data follows.
Problem: Give TGI for the following compound: N#C/C(=C\c1cc(Br)c(O)c(Br)c1)c1cccnc1
Result: 97.2

Problem: Fill in reported TGI for this entry: CC(=O)N/N=C1\NC(=O)C[C@H]2[C@@H]3CC=C4C[C@@H](OC(C)=O)CC[C@]4(C)[C@H]3CC[C@]12C
Result: 32.5

Problem: Let me know recorded TGI for N=S(c1ccccc1)c1ccccc1[N+](=O)[O-] (configuration not stated) , thanks.
Result: 52.6

Next:
Problem: Entry O=C1C(SCCO)=C(SCCO)C(=O)c2ccccc21 needs its TGI filled in; supply it.
Result: 3.77

Problem: Please supply the value of reported TGI for the item O=C(N=Nc1cc(Cl)ccc1Cl)NNc1cc(Cl)ccc1Cl
Result: 40.7

Problem: Give TGI for O=C1C[C@H](Sc2ccccc2)C2(OCCO2)[C@@H](Sc2ccccc2)C1
Result: 13.6

----------
# Test system: HL-60(TB) leukemia
# TEST DETAILS: NCI tumour cell line growth inhibition, 48 h
QUANTITY NAME: TGI (µM)
Return type: number; implicit unit µM.

Problem: State its TGI for this compound: CCOC(=O)/C=C(\C)c1ccc(C)cc1C
Result: 11.9

Problem: Provide TGI value for the following compound: O=C(/C=C/c1ccccc1)CC(c1ccccc1)N1CCOCC1 (stereo not drawn)
Result: 18.1

Problem: Provide one value: measured TGI of CC1(C)[C@@H]2CC[C@@]1(C)[C@@H]1O[C@@H](O[C@@H](CN)c3cc(Cl)c(OCc4ccccc4)c(OCc4ccccc4)c3)C[C@H]21
Result: 0.373

Problem: Provide TGI value for the following compound: N=S(c1ccccc1)c1ccccc1[N+](=O)[O-] (stereo not drawn)
Result: 36.5

Problem: Return reported TGI. Input compound: CC1(C)OC2COC3(CNO)OC(C)(C)OC3C2O1 (stereo not drawn)
Result: 30.2

Further cases:
Problem: Provide one value: measured TGI of CN(C)c1ccc(C=C2N=C(c3ccccc3)N(c3cc(C(=O)c4ccccc4)ccc3N3C(=O)/C(=C/c4ccc(N(C)C)cc4)N=C3c3ccccc3)C2=O)cc1
Result: 37.6

Problem: Fill in TGI for record O=C(N=Nc1cc(Cl)ccc1Cl)NNc1cc(Cl)ccc1Cl
Result: 32.4

Problem: Look up TGI of O=C(NCCCN(CCCCN(CCCNC(=O)C(F)(F)F)Cc1ccccc1)Cc1ccccc1)C(F)(F)F and report it.
Result: 36.3

Problem: Give the value of TGI reported for the following: COC(=O)c1c2c(cc3c1CC1(C3)Cc3cc4c(c(C(=O)OC)c3C1)CCCC4)CCCC2
Result: 74.5

Problem: Annotate the compound O=C1c2cccnc2-c2nc(-c3ccncc3)cc3c2c1nc1ccccc13 with its measured TGI.
Result: 89.6

Problem: Supply TGI value. Item: O=C1C(Cl)=C(Nc2ccccc2)C(=O)c2ccccc21
Result: 5.31

Problem: Supply TGI value. Item: COc1c(Br)cc(Br)c(OC)c1-c1[nH]c(Br)c(Br)c1Br
Result: 25.1

Problem: Write down TGI measured for item COc1ccc2cc(-c3ccc(-c4ccc(C(=N)N)s4)s3)ccc2c1
Result: 5.34

----------
Collected TGI values appear next to each entry.
# Test system: RPMI-8226 leukemia
# TEST DETAILS: NCI tumour cell line growth inhibition, 48 h

Would you please look over these solved cases?
Problem: Look up and state reported TGI for COc1ccccc1-c1cc(=O)c2ccc(C)nc2[nH]1
Result: > 100 µM

Problem: Indicate its recorded TGI; the molecule in question is O=C/C(=C(/Cl)c1ccc(O)cc1)c1ccccc1
Result: > 63 µM

Problem: Return reported TGI. Input molecule: Cc1ccc2c(c1)Sc1ccc(N=NN(C)C)cc1N2C
Result: > 100 µM

New cases:
Problem: Assign TGI to the following record: C/C=C/C=C/c1nc(C#N)c(N)o1
Result: > 100 µM

Problem: Determine from records and report TGI for C#CCC(N)(CO)C(=O)O (stereo unspecified)
Result: > 100 µM

Problem: Name the recorded TGI of the molecule listed here: O=C(NCCN1CCOCC1)c1ccc2cc(C(=O)N3CC(CCl)c4ccc([N+](=O)[O-])cc43)[nH]c2c1 (stereo unspecified)
Result: 9.09 µM

----------
# Test system: SW-620 colon
# TEST DETAILS: NCI tumour cell line growth inhibition, 48 h
QUANTITY NAME: TGI

Take a look at these entries with their results.
Problem: Would you please give the reported TGI of O=C1/C(=C\c2cccc(Oc3ccccc3)c2)S(=O)(=O)C(c2ccccc2)N1Cc1ccccc1 (stereo not drawn) with SW-620 colon?
Result: > 100 µM

Problem: Write down the reported TGI (system: SW-620 colon) of COc1ccc(C(OCC2OC(n3cc(C)c(=O)[nH]c3=O)CC2n2cc(Cn3cc(F)c(=O)[nH]c3=O)nn2)(c2ccccc2)c2ccccc2)cc1 (stereo not drawn)
Result: 21.4 µM

Problem: State recorded TGI with SW-620 colon, entry CC1(c2ccccc2)CC(c2ccccc2)=NO1 (stereo not drawn) , no comment.
Result: > 100 µM

Continuing:
Problem: Provide TGI, tested on SW-620 colon, for CC1(Cc2ccccc2)NC(=S)NC1=O (stereo not drawn) .
Result: > 100 µM

Problem: Lab note: SW-620 colon assay, enter TGI for COc1ccc2cc(-c3ccc(-c4ccc(C(=N)N)s4)s3)ccc2c1 here
Result: 3.81 µM

Problem: Tell me its TGI on SW-620 colon: Cc1ccccc1C(O)(c1nccn1C)c1nccn1C
Result: > 100 µM

Problem: Answer briefly: TGI recorded on SW-620 colon for COc1c(Br)cc(Br)c(OC)c1-c1[nH]c(Br)c(Br)c1Br
Result: 21.7 µM

Problem: Retrieve TGI on SW-620 colon; query CNC(=O)c1cc2c(Oc3ccc(NC(=O)C4(C(=O)Nc5ccc(F)cc5)CC4)cc3)ccnc2cc1OC
Result: > 100 µM

----------
# System: K-562 leukemia
# TEST DETAILS: NCI tumour cell line growth inhibition, 48 h; in the data active = GI50 below about 0.43 µM; inactive = the rest
Response enum: active, inactive

Use the examples below as a reference point.
Problem: Just curious, what result did C[C@H]1[C@H](C)CC[C@]2(C(=O)NCCNCCN)CC[C@]3(C)C(=CC[C@@H]4[C@@]5(C)CCC(=O)C(C)(C)[C@@H]5CC[C@]43C)[C@H]12 get here?
Result: inactive

Problem: Recorded test outcome, item COCCOCCOCc1n(Cc2ccc3ccccc3n2)c2ccccc2[n+]1Cc1ccc2ccccc2c1
Result: active

Problem: Answer briefly: the call reported for CCCCCCCCCCCC[n+]1ccccc1 (tested in a mixture with another compound) in this assay.
Result: active

Now consider the entry below.
Problem: In this assay, the call recorded for CC(C)c1ccc(C(=O)Nc2sc3c(CN(C)C)c(O)ccc3c2C(N)=O)cc1 was what?
Result: active

----------
# System: OVCAR-4 ovarian
# TEST DETAILS: NCI tumour cell line growth inhibition, 48 h
QUANTITY NAME: TGI

Problem: Indicate its recorded TGI; the compound in question is Cc1ncc(C(=O)Nc2ccc(CN3CCN(C)CC3)c(C(F)(F)F)c2)cc1C#Cc1cnc(NC2CC2)c2ncccc12
Result: 3.27 µM

Problem: Using the record for Clc1ccc(-c2nn3c(-c4ccncc4)nnc3s2)cc1 , state its measured TGI.
Result: > 100 µM

Problem: Fill in TGI for record CCCCCCCCCCCCCC(=O)OCC1OC(=O)CC1O (stereo unspecified)
Result: > 100 µM

Continuing:
Problem: In one line, give reported TGI of the entry CCOC(=O)/C(=C/c1cccc(OC)c1)N(CC)CC .
Result: > 100 µM

Problem: Report TGI for NC(=O)/C=C/C(=O)O
Result: > 5000 µM

Problem: Respond only with TGI recorded for O=C(O)CCC(NC(=S)S)C(=O)O.[Na+].[Zn+2] (stereo unspecified)
Result: > 50 µM

Problem: Give the reported value of TGI for this record: Cc1nnc(N/N=C(/C(=O)C(C#N)c2ccccc2)C(C#N)c2ccccc2)n1N (stereo unspecified)
Result: > 54.9 µM

Problem: Read the entry COc1c(Br)cc(Br)c(OC)c1-c1[nH]c(Br)c(Br)c1Br and write its reported TGI.
Result: 16.3 µM

----------
Let's look at some compounds and their measured TGI.
# System: UACC-257 melanoma
# TEST DETAILS: NCI tumour cell line growth inhibition, 48 h
Your answer is read as µM, so omit the unit and give the number.

Problem: Specify reported TGI for the compound shown: O=C(/C=C/c1ccccc1)CC(c1ccccc1)N1CCOCC1 (stereo not given)
Result: 18.8

Problem: Indicate its recorded TGI; the compound in question is O=C1C(SCCO)=C(SCCO)C(=O)c2ccccc21
Result: 2.59

Problem: Please give the documented TGI of CCCNC(=O)CCC(C)[C@H]1CCC2C3C(C[C@H](OC(C)=O)[C@@]21C)[C@@]1(C)CCC2(C[C@H]1C[C@H]3OC(C)=O)OOC1(CCC(C)CC1)OO2 (stereo not given in full)
Result: 90.9

With those in mind, consider the next compound.
Problem: Return value of TGI for input COc1ccc(/C=C2/CCc3cc4ccc(OC)cc4[o+]c32)c(O)c1 , no commentary.
Result: 32
